Please provide measured pEC50 for the entries that follow.
- assay.summary: CaMKII Cell-Based Activity: CaMKII activity in neonatal rat ventricular myocytes (NRVM) was measured by monitoring the phosphorylation level of phospholamban using high-content imaging. NRVMs were plated in a clear bottom 384-well plate in medium supplemented with 10% fetal bovine serum (FBS) and incubated at 37° C., 5% CO2 overnight. The medium was changed to a serum-free medium and compounds were dosed to the cells. The cells were incubated at 37° C., 5% CO2 for 4 hours and were then treated with 100 nM ATX-II (Alomone Labs) to activate CaMKII. 10 minutes after the addition of ATX-II, the cells were fixed with 4% formaldehyde followed by permeabilization with 0.1% triton X100. The fixed cells were stained with an anti-phospho-phospholamban primary antibody (Santa Cruz Biotechnology) and an Alexa488-labeled anti-rabbit IgG secondary antibody (Life Technologies Corporation) as well as Hoechst 33342 (Life Technologies Corporation). The cells were imaged using an ArrayScan VTI (Cellomics) and analyzed for cells containing a positive fluorescent signal at 485 nm, reported as % responder. The % responders were plotted against the compound concentration to determine the compounds EC50.
Answers are plain numbers, as −log10 of the molar value.

Example entries and their recorded answers appear below.
INSERT INTO assay_data (compound, recorded_number) VALUES
  ('CC(C)C[C@@]1(CNC(=O)c2ccnc(-c3cnn4ccc(-c5cccs5)nc34)c2)CCCN1', 7.18),
  ('CCN(CC)[C@@H](C)CNC(=O)c1cc(-c2cnn3ccc(-c4cccs4)nc23)nc(N2CC(C(C)(C)O)C2)c1', 7.24);

Report pEC50 for every entry below.
1. N[C@@H]1CCC[C@H]2CCCN(C(=O)c3ccnc(-c4cnn5ccc(-c6ccccc6)nc45)c3)[C@H]21
2. CCCNC(CNC(=O)c1ccnc(-c2cnn3ccc(-c4ccccc4)nc23)c1)C(C)C (stereo unspecified)
3. CCN(CC)[C@@H](C)CNC(=O)c1cc(NC(=O)OC(C)C)nc(-c2cnn3ccc(-c4cccs4)nc23)c1
4. CCN(CC)[C@@H](C)CNC(=O)c1cc(-c2c[nH]nc2C(F)(F)F)nc(-c2cnn3ccc(-c4cccs4)nc23)c1

Response:
[7.14, 7.37, 7.40, 7.69]

----------
- assay.summary: CaMKII Cell-Based Activity: CaMKII activity in neonatal rat ventricular myocytes (NRVM) was measured by monitoring the phosphorylation level of phospholamban using high-content imaging. NRVMs were plated in a clear bottom 384-well plate in medium supplemented with 10% fetal bovine serum (FBS) and incubated at 37° C., 5% CO2 overnight. The medium was changed to a serum-free medium and compounds were dosed to the cells. The cells were incubated at 37° C., 5% CO2 for 4 hours and were then treated with 100 nM ATX-II (Alomone Labs) to activate CaMKII. 10 minutes after the addition of ATX-II, the cells were fixed with 4% formaldehyde followed by permeabilization with 0.1% triton X100. The fixed cells were stained with an anti-phospho-phospholamban primary antibody (Santa Cruz Biotechnology) and an Alexa488-labeled anti-rabbit IgG secondary antibody (Life Technologies Corporation) as well as Hoechst 33342 (Life Technologies Corporation). The cells were imaged using an ArrayScan VTI (Cellomics) and analyzed for cells containing a positive fluorescent signal at 485 nm, reported as % responder. The % responders were plotted against the compound concentration to determine the compounds EC50.
endpoint: pEC50
One number for each entry, as −log10 of the molar value.

INSERT INTO assay_data (compound, endpoint, recorded_number) VALUES
  ('O=C(c1ccnc(-c2cnn3ccc(-c4cccs4)nc23)c1)N1CC2CCC[C@@H](C1)NC2', 'pEC50', 7.27),
  ('CCN(CC)[C@@H](C)CNC(=O)c1cc(-c2cnn3ccc(-c4cccs4)nc23)nc(N2CC[C@H]2C(=O)N2CC(O)C2)c1', 'pEC50', 6.82),
  ('N[C@@H](CO)CNC(=O)c1ccnc(-c2cnn3ccc(-c4ccccc4)nc23)c1', 'pEC50', 6.48);

Report pEC50 for every entry below.
1. COC1CN(c2cc(C(=O)NC[C@@H]3CCCN3)cc(-c3cnn4ccc(-c5cccs5)nc34)n2)C1
2. CCN(CC)[C@@H](C)CNC(=O)c1cc(N[C@@H](C)C(=O)NC)nc(-c2cnn3ccc(-c4cccs4)nc23)c1

Response:
1: 6.58; 2: 6.89

Report pEC50 for every entry below.
1. NC[C@H]1CCCCN1C(=O)c1cc(-c2cnn3ccc(-c4ccccc4)nc23)ncc1N
2. Cc1cnc(-c2cnn3ccc(-c4ccccc4)nc23)cc1C(=O)N1CCCC[C@@H]1[C@@H](C)N
3. O=C(c1ccnc(-c2cnn3ccc(-c4cccs4)nc23)c1)N1CC2CNC(COC2)C1 (stereo not drawn)
4. CCC(C)N[C@@H](C)CNC(=O)c1ccnc(-c2cnn3ccc(-c4ccccc4)nc23)c1 (stereo partly drawn)
5. COc1cc(C(=O)N2CCCC[C@@H]2CN)cc(-c2cnn3ccc(-c4ccccc4)nc23)n1

Response:
7.63
7.18
6.59
7.60
6.50

Report pEC50 for every entry below.
1. CCN(CC)[C@@H](C)CNC(=O)c1cc(-c2cnn3ccc(-c4cccs4)nc23)nc(N2CCC[C@@H]2CO)c1
2. CCN(CC)[C@@H](C)CNC(=O)c1cc(-c2cnn3ccc(-c4cccs4)nc23)nc(N2CC(N(C)C)C2)c1
3. CCNC(CC)CNC(=O)c1ccnc(-c2cnn3ccc(-c4ccccc4)nc23)c1 (stereo not drawn)
4. CCN(CC)[C@@H](C)CNC(=O)c1cc(-c2cnn3ccc(-c4cccs4)nc23)nc(N(C)C)c1
5. CCN(CC)[C@@H](C)CNC(=O)c1cc(O[C@H]2CCOC2)nc(-c2cnn3ccc(-c4cccs4)nc23)c1

Response:
1. 7.34
2. 6.77
3. 7.33
4. 7.39
5. 7.24

Report pEC50 for every entry below.
1. O=C(NCC12CCCN1CCC2)c1ccnc(-c2cnn3ccc(-c4cccs4)nc23)c1
2. CCC[C@@]1(CNC(=O)c2ccnc(-c3cnn4ccc(-c5cccs5)nc34)c2)CCCN1
3. CCN(CC)[C@@H](CO)CNC(=O)c1cc(-c2cnn3ccc(-c4cccs4)nc23)nc(N2CC[C@H]2C(=O)NC)c1

Response:
7.38
7.00
7.14
